molecular target: Thioredoxin reductase 1, cytoplasmic (Rattus norvegicus); experiment: qHTS Assay for Inhibitors of Mammalian Selenoprotein Thioredoxin Reductase 1 (TrxR1) (AID 488773); settings: purified TrxR1 enzyme activity; inhibition; series mostly up to 57.1 µM; note: nearly all actives have a fitted effect of over 40% in size; note: potency is the fitted concentration of half-maximal effect
Inconclusive results are not listed. Activity calls are given as the source filed them. Calls come from the whole dose curve; as a rule, active = well fitted inhibition curve with a large enough effect; inconclusive = small, poorly fitted or top-dose-only effect; inactive = no such curve, though single readings can be large or run the other way.
Metric: Potency

> print(dat)
                                    compound   measured.result
 1                 N#CC(C#N)=Cc1ccc(O)c(O)c1  16.8 µM (active)
 2           Cc1ncc(CNC(=O)N(CCCl)N=O)c(N)n1          inactive
 3        CCCN1CCC[C@@H]2Cc3[nH]ncc3C[C@H]21          inactive
 4                                  NN=C(N)N          inactive
 5  Fc1ccc(C(OCCN2CCN(CCCc3ccccc3)CC2)c2ccc(F)cc2)cc1          inactive
 6  C=C(C)[C@H]1Cc2c(ccc3c2O[C@@H]2COc4cc(OC)c(OC)cc4[C@@H]2C3=O)O1          inactive
 7  NCC(CC(=O)O)c1ccc(Cl)cc1 (stereo not given)          inactive
 8  COc1ccc(C(CN(C)C)C2(O)CCCCC2)cc1 (stereo not given)          inactive
 9       CCCN1CCC[C@@H]2Cc3nc(N)ncc3C[C@H]21          inactive
10  CCC1(C2=NCCN2)Cc2ccccc2O1 (stereo not given)          inactive
11  CC[C@@H](CO)NC(=O)[C@@H]1C=C2c3cccc4c3c(cn4C)C[C@H]2N(C)C1  10.6 µM (active)
12                    Cc1cccc(C)c1NC1=NCCCS1          inactive
13  c1ccc2c(c1)OCC(C1=NCCN1)O2 (stereo not given)  7.52 µM (active)
14  Cc1cc2c(C(C)C)c(O)c(O)c(C=O)c2c(O)c1-c1c(C)cc2c(C(C)C)c(O)c(O)c(C=O)c2c1O    15 µM (active)
15  O=C1NCN(c2ccccc2)C12CCN(CC1COc3ccccc3O1)CC2 (stereo not given)          inactive

---

test system: N140; assay: qHTS profiling for inhibitors of Plasmodium falciparum proliferation (AID 504749); note: nearly all actives have a fitted effect of over 60% in size; conditions: P. falciparum in erythrocytes, SYBR Green DNA, 72 h; series mostly up to 28.7 µM
Results filed as inconclusive are left out. Activity calls are given as the source filed them. Calls come from the whole dose curve; as a rule, active = well fitted inhibition curve with a large enough effect; inconclusive = small, poorly fitted or top-dose-only effect; inactive = flat fitted curve, though single readings scatter.
Outcomes: y = active, n = inactive

> print(dat)
                                    compound  group
 1      CC1NCCOC1c1ccccc1 (stereo not drawn)      n
 2     CCN(CC)CCOC(=O)C(O)(c1ccccc1)c1ccccc1      n
 3  O=C(O)c1ccc2[nH]cc(CCCCN3CC=C(c4ccccc4)CC3)c2c1      n
 4            CCCC1CCCCN1 (stereo not drawn)      n
 5    Cn1c(CCCC(=O)O)nc2cc(N(CCCl)CCCl)ccc21      n
 6           Cc1ncc(CNC(=O)N(CCCl)N=O)c(N)n1      n
 7                          CC[N+](CC)(CC)CC      n
 8   Cc1ccc(-c2nc3ccc(C)cn3c2CC(=O)N(C)C)cc1      n
 9              Oc1cc(Cl)ccc1Oc1ccc(Cl)cc1Cl      y
10        CC1OC(C)OC(C)O1 (stereo not drawn)      n
11                    Oc1ccc(Cl)cc1Cc1ccccc1      y
12  Fc1ccc(C(OCCN2CCN(CCCc3ccccc3)CC2)c2ccc(F)cc2)cc1      y
13  FC(F)(F)c1cccc(C2=CCN(CCc3ccc4ccccc4c3)CC2)c1      n

---

test: qHTS for identification of novel therapeutic agents for treatment of microphthalmiaassociated transcription factor (MiT) renal cell carcinoma (RCC) (AID 1963991); conditions: TFE3-RCC UOK109 viability, CellTiter-Glo, 48 h; measured here: UOK109 Z-AUC; stronger effect = lower value;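 note: curves scaled with 100% = DMSO viability and 0% = empty wells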
Results filed as inconclusive are left out.
z-score listing for selected compounds.
Metric: z-score

> print(dat)
                                   compound  measured.result
1  CCCC(C)(COC(N)=O)COC(=O)NC(C)C (centres undefined)           -0.172
2    CNCC(O)c1ccc(O)cc1 (centres undefined)           0.0605
3                 C#CCN(C)[C@H](C)Cc1ccccc1            0.064
4  CN(C)[C@@H]1C(=O)C(C(N)=O)=C(O)[C@@]2(O)C(=O)C3=C(O)c4c(O)cccc4[C@@](C)(O)[C@H]3C[C@@H]12             1.21
5    Cn1c(CCCC(=O)O)nc2cc(N(CCCl)CCCl)ccc21             1.39
6  COc1ccc2c(c1OC)CN1CCc3cc4c(cc3C1C2)OCO4 (centres undefined)            0.633
7  O=C1CC[C@@]2(O)[C@H]3Cc4ccc(O)c5c4[C@@]2(CCN3CC2CC2)[C@H]1O5            0.814
8                       NCC1(CC(=O)O)CCCCC1            0.318
9  CC1=C2C[C@@H]3[C@@H](CC=C4C[C@@H](O)CC[C@@]43C)[C@@H]2CC[C@]12O[C@H]1C[C@H](C)CN[C@H]1[C@H]2C            0.302

---

assay: Inducers of the Endoplasmic Reticulum Stress Response (ERSR) in human glioma: Validation (AID 504836); conditions: human glioma cells, ER stress response reporter; series mostly up to 38.3 µM; note: 0% is about no effect
The source made the active and inactive calls. The call rests on the fitted dose curve; in most records, active means well fitted curve in the direction sought with a large enough effect; inconclusive means small, poorly fitted or top-dose-only effect, or effect the other way, or another doubt; inactive means no such curve, though single readings can be large or run the other way.
Metric: outcome

> print(dat)
                                    molecule   metric  measured.result
 1  CC(=O)[C@H]1CC[C@H]2[C@@H]3CC[C@H]4C[C@H](O)CC[C@]4(C)[C@H]3C(=O)C[C@]12C  outcome         inactive
 2        CCCN1CCC[C@@H]2Cc3[nH]ncc3C[C@H]21  outcome         inactive
 3     CN1CCN(C2=Nc3ccccc3Oc3ccc(Cl)cc32)CC1  outcome         inactive
 4  CN(C)[C@@H]1C(=O)C(C(N)=O)=C(O)[C@@]2(O)C(=O)C3=C(O)c4c(O)ccc(Cl)c4[C@@H](O)[C@H]3C[C@@H]12  outcome         inactive
 5  OCCN1CCN(CCCN2c3ccccc3Sc3ccc(Cl)cc32)CC1  outcome         inactive
 6  COc1ccccc1OCCNCC(O)COc1cccc2[nH]c3ccccc3c12 (stereo not drawn)  outcome         inactive
 7  O=C(c1ccccc1)c1ccc2n1CCC2C(=O)O (stereo not drawn)  outcome         inactive
 8       CN(C)CC[C@@H](c1ccc(Br)cc1)c1ccccn1  outcome         inactive
 9        CN1CCC(=C2c3ccccc3C=Cc3ccccc32)CC1  outcome         inactive
10  COc1cc2nc(N3CCN(C(=O)c4ccco4)CC3)nc(N)c2cc1OC  outcome         inactive
11          CCN(CC)CCNC(=O)c1cc(Cl)c(N)cc1OC  outcome         inactive
12  O=C(O)COCCN1CCN(C(c2ccccc2)c2ccc(Cl)cc2)CC1 (stereo not drawn)  outcome         inactive
13  CCN(CC)CCCC(C)Nc1ccnc2cc(Cl)ccc12 (stereo not drawn)  outcome         inactive
14          Nc1nc2c(ncn2COC(CO)CO)c(=O)[nH]1  outcome         inactive
15  Cc1ccccc1N1C(=O)c2cc(S(N)(=O)=O)c(Cl)cc2NC1C (stereo not drawn)  outcome         inactive
16            Cc1[nH]c(=O)c(C#N)cc1-c1ccncc1  outcome         inactive
17  CC[C@@H](CO)NC(=O)[C@@H]1C=C2c3cccc4[nH]cc(c34)C[C@H]2N(C)C1  outcome         inactive
18              NC(=O)c1cn(Cc2c(F)cccc2F)nn1  outcome         inactive
19  O=C(c1ccc(OCCN2CCCCC2)cc1)c1c(-c2ccc(O)cc2)sc2cc(O)ccc12  outcome         inactive
20           COc1cc(Cc2cnc(N)nc2N)cc(OC)c1OC  outcome         inactive
21  CCOC(=O)N1CCC(=C2c3ccc(Cl)cc3CCc3cccnc32)CC1  outcome         inactive
22    CN1CCN(CCCN2c3ccccc3Sc3ccc(Cl)cc32)CC1  outcome         inactive
23  c1ccc2c(c1)OCC(C1=NCCN1)O2 (stereo not drawn)  outcome         inactive
